Sourced from the supplement of paper PMC10567573

B1: SNAP91 (parent)
chain: FAAPSPATTASPAKVDSSGVIDLF

Variants of: B1
experiment: protein stability index of a GFP-peptide fusion (GPS, HEK-293T) (PSI 1-6); higher = more stable;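 also: lentivirally expressed fusions sorted by FACS into six bins by GFP to DsRed ratio, PSI derived from sequencing read proportions per bin multiplied by bin number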
protocol conditions: c terminus: a fixed tail appended
Give measured protein stability index for each item. Keep answers brief.
One number for each entry.

Solved cases below.
FAAPSPAITASPAKVDSSGVIDLF : 2.85
FAAPSPATTASYAKVDSSGVIDLF : 1.97
FASPSPATTASPAKVDSSGVIDLF : 2.61
FAAPSPATTASPAKVCSSGVIDLF : 1.54

Dear colleague, could you send me protein stability index for each of the items below? Thanks.
1. FAAPSPATTASTAKVDSSGVIDLF
2. FAAPSPATTASPAKVDSSGVIDLG
3. FAAPSPATTASPVKVDSSGVIDLF
4. FAAPSPATTLSPAKVDSSGVIDLF
5. FAKPSPATTASPAKVDSSGVIDLF
6. FAAPSPATTASPAKVQSSGVIDLF

1: 2.15; 2: 4.35; 3: 2.79; 4: 2.74; 5: 2.38; 6: 1.9
